- System: K-562
- Run description: NCI 60-cell line growth inhibition assay
- Type: cell-based
- Protocol conditions: Homo sapiens, K562; K-562 (Leukemia)
Recorded metric: GI50

Smiles structure	Recorded metric	Test result
CC(C)n1cnc2c(NCc3ccc(-c4ccsc4)cc3)nc(N[C@H]3CC[C@H](N)CC3)nc21	GI50	< 0.005 µM
CC[C@H](CO)Nc1nc(NCc2ccc(-c3ccc(OC)cc3)cc2)c2ncn(C(C)C)c2n1	GI50	3.1 µM
CC(=O)N[C@H]1CC[C@H](Nc2nc(NCc3ccc(-c4ccccn4)cc3)c3ncn(C(C)C)c3n2)CC1	GI50	< 0.01 µM

----------
- Tested on: 786-0
- Run description: NCI 60-cell line growth inhibition assay
- Assay type: cell-based
- Protocol conditions: Homo sapiens; 786-0 (Renal)
The entries below come with measured GI50 values attached.

Compound	Result units	Relational operator	GI50
CC[C@H](CO)Nc1nc(NCc2ccc(-c3ccc(OC)cc3)cc2)c2ncn(C(C)C)c2n1 [Compound 43]	µM	=	3.1
Cn1cnc2c(NCc3ccccc3)nc(NCCO)nc21 [Olomoucine, reference compound]	µM	=	63
CC(=O)N[C@H]1CC[C@H](Nc2nc(NCc3ccc(-c4ccccn4)cc3)c3ncn(C(C)C)c3n2)CC1 [Compound 79]	µM	<	0.01

----------
Catalogue of molecules with associated GI50
- System: MALME-3M
- Run description: NCI 60-cell line growth inhibition assay
- Format: cell-based
- Protocol conditions: Homo sapiens; MALME-3M (Melanoma)
Recorded metric: GI50 (nM)

Molecule	Assayed target	Recorded metric	Relational operator	Test result
CC(C)n1cnc2c(NCc3ccc(-c4ccccn4)cc3)nc(N[C@H]3CC[C@H](N)CC3)nc21 [Compound 78]	MALME-3M	GI50	=	10
Cn1cnc2c(NCc3ccccc3)nc(NCCO)nc21 [Olomoucine, reference compound]	MALME-3M	GI50	=	100000
CC[C@H](CO)Nc1nc(NCc2ccc(-c3cccc([N+](=O)[O-])c3)cc2)c2ncn(C(C)C)c2n1 [Compound 48]	MALME-3M	GI50	=	130
CC(=O)N[C@H]1CC[C@H](Nc2nc(NCc3ccc(-c4ccccc4)nc3)c3ncn(C(C)C)c3n2)CC1 [Compound 87]	MALME-3M	GI50	=	24
CC(=O)N[C@H]1CC[C@H](Nc2nc(NCc3ccc(-c4ccccn4)cc3)c3ncn(C(C)C)c3n2)CC1 [Compound 79]	MALME-3M	GI50	<	10
CC[C@H](CO)Nc1nc(NCc2ccc(-c3ccc(OC)cc3)cc2)c2ncn(C(C)C)c2n1 [Compound 43]	MALME-3M	GI50	=	3000

----------
- Test system: MOLT-4
- Run description: NCI 60-cell line growth inhibition assay
- Type: cell-based
- Protocol conditions: Homo sapiens; Leukemia, MOLT-4
Recorded metric: GI50

Molecule	Test result
C=Cc1ccc(-c2ccc(CNc3nc(N[C@H](CC)CO)nc4c3ncn4C(C)C)cc2)cc1 [Compound 33]	3800 nM
CC[C@H](CO)Nc1nc(NCc2ccc(-c3cccc(C(F)(F)F)c3)cc2)c2ncn(C(C)C)c2n1 [Compound 38]	250 nM
CC[C@H](CO)Nc1nc(NCc2ccc(-c3ccccc3)cc2)c2ncn(C(C)C)c2n1 [Compound 73]	320 nM
CC[C@H](CO)Nc1nc(NCc2ccc(-c3ccccn3)cc2)c2ncn(C(C)C)c2n1 [Compound 17]	250 nM
